# System: A549/ATCC NSCLC
# Method: NCI-60 one-dose screen, 48 h
# Conditions Used: 10 µM unless noted
Compounds without any hit were thinned out: in the full panel of roughly 83,000, 20% have a hit. The source made the active and inactive calls. The calls were made as follows: active = growth percent below 10; inactive = the rest.
Field 'call' accepts active, inactive

For orientation, consider the following solved cases.
- Molecule: "CN(C)c1ccc(/C=C/C(=O)c2cccc(Nc3nc(Nc4ccccc4)nc(Nc4ccccc4)n3)c2)cc1"
  Classification: "inactive"
- Molecule: "CC1CC(C(C)(C)C)C(=O)C(C(C)(C)C)C1 (stereo not given)"
  Classification: "inactive"

Moving on to the next molecule.
query: Could you please tell me the result logged for COc1ccc(-c2[nH]c(=S)n(C(CC3(C)NCC(=O)N3n3c(-c4ccccc4)cc(C)nc3=S)c3ccc(OC)cc3)c(=O)c2Br)cc1 (stereo not given) in this assay?
result: inactive

----------
# Tested on: MOLT-4 leukemia
# Method: NCI-60 one-dose screen, 48 h (100 = growth as untreated, 0 = no growth, -100 = all killed)
# Conditions Used: 10 µM unless noted
The panel holds about 83,000 compounds, 20% with a hit somewhere; the sample as a whole holds those more often.
Observation Type: growth (%)
Quick note: give the figure in %, leave out the unit.

- Compound: "COc1ccc(C(=NN=C(N)N)c2ccc(OC)cc2)cc1"
  Readout Unit: "%"
  growth: 40
- Compound: "O=c1cc(C2NNC(=S)N2)c2ccc3ccccc3c2o1 (stereo unspecified)"
  Readout Unit: "%"
  growth: 102

query: Entry "Cc1ccc2nc(NC(=O)CSc3nc(Nc4ccc([N+](=O)[O-])cc4)c(C#N)c(-c4ccccc4)n3)sc2c1" has what growth?
result: 97.8

query: Entry "COc1c(CCC[P+](c2ccccc2)(c2ccccc2)c2ccccc2)cc2c(c1OC)OCO2" has what growth?
result: 33.3

query: Entry "CCOc1ccccc1-c1cc(-c2cccs2)c(C#N)c(=O)[nH]1" has what growth?
result: 92.9

query: Entry "COc1ccccc1N1C(=O)/C(=C/C2=Cc3ccccc3OC2)SC1=S" has what growth?
result: 94.6

query: Entry "CCN(CC)c1ccc(C(=O)c2ccc(N(CC)CC)cc2)cc1" has what growth?
result: 24.3

query: Entry "CN(C)CCNc1nc2ccccc2c2c1c1c(n2Cc2ccccc2)-c2ccccc2C1=O" has what growth?
result: -84.3

query: Entry "O=C1Nc2ccccc2/C1=C/c1cn(C(=O)c2c(Cl)cccc2Cl)c2ccccc12" has what growth?
result: 43.9

query: Entry "O=C(N/N=C/C=C/c1ccc([N+](=O)[O-])o1)c1cc2ccccc2cc1O" has what growth?
result: 4.89

query: Entry "COc1cc(-c2n/c(=C\c3c(O)[nH]c4ccc(Cl)cc34)cc3c2=Nc2ccccc2-3)cc(OC)c1OC" has what growth?
result: 10.2

query: Entry "O=C(/C=C/c1c(Cl)nc2sccn12)c1ccc(F)c(F)c1" has what growth?
result: 66.7

query: Entry "CCN(CCNc1ccc(C)c2sc3ccccc3c(=O)c12)CC(C)(C)O" has what growth?
result: 40

query: Entry "COc1cc(C(=O)/C=C/c2c(C(F)(F)F)nc3sccn23)cc(OC)c1OC" has what growth?
result: 0.936

query: Entry "C=CCNc1nc(NN2C(=O)c3cccc4cccc(c34)C2=O)nc(-n2cnc3ccccc32)n1" has what growth?
result: 56

query: Entry "COc1ccc2[nH]c(O)c(/C=c3/cc4c(c(-c5ccc(F)c(OC)c5)n3)=Nc3ccccc3-4)c2c1" has what growth?
result: 1.77

query: Entry "O=c1[nH]nc(-c2ccccc2)c2c(-c3ccccc3)onc12" has what growth?
result: 30.2

query: Entry "Cc1cccc(Cc2cnc(NC(=O)/C=C/c3ccco3)s2)c1" has what growth?
result: 15.9

query: Entry "O=C(/C=C/c1ccc(Cl)nc1)c1ccc(Cl)cc1Cl" has what growth?
result: 15.9

query: Entry "Cc1ccc2c(c1)Sc1c(ccc3ccccc13)N2" has what growth?
result: 32.4

query: Entry "CCN(CC)c1nc(SCC(=O)Nc2nc3ccc(C)cc3s2)nc(-c2ccccc2)c1C#N" has what growth?
result: 79.7
